Target: hPPARδ/β (Homo sapiens, UniProt Q03181)
Sequence (Q03181 143-441): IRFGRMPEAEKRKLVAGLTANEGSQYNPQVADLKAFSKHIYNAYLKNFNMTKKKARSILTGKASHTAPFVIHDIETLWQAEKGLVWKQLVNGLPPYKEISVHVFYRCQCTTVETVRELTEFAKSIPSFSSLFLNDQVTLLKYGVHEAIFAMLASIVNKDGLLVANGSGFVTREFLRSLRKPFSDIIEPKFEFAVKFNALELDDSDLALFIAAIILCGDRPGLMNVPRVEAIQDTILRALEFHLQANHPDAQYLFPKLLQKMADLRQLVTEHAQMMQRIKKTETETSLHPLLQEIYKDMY
Experiment: HEK293 cell culture luciferase reporter assay, hPPARδ/β
Settings: read-out: EC50 hPPARδ/β; HEK293, GAL4-hPPARδ/β LBD, luciferase
Metric name: EC50 (nM)

>>> experimental_value("O=C(O)COc1ccc(SCC=C(c2ccc(Br)cc2)c2ccc(Br)cc2)cc1Cl")
12.8

Source listed as patent US9770421B2.
